tested on: TNF α; assay: In vivo LPS induced TNF α inhibition in Balb/c mice; conditions: 10 mg/kg orally, 30 minutes prior to i.v. LPS (50 μg/kg); blood 60 minutes after LPS
RECORDED_ENDPOINT: In vivo LPS induced TNF α inhibition in Balb/c mice TNF α % inhibition (10 mg/kg) (%)
Answer in %, number only, no unit symbol.

Some entries whose results are on file:
CCc1nc(-c2ccccc2)c(-c2ccnc(N=S(C)(=O)c3cccc(F)c3)c2)s1 (centres unmarked) [Example 25]: 59.6
CCc1nc(-c2ccc(F)c(F)c2)c(-c2ccnc(N=S(=O)(c3ccccc3)C(C)C)c2)s1 (centres unmarked) [Example 60]: 53.65
CCc1nc(-c2ccc(F)cc2)c(-c2ccnc(N=S(C)(=O)c3ccc(F)cc3)c2)s1 (single isomer, unassigned; (+)) [Example 44]: 50.4
CCc1nc(-c2ccc(F)cc2)c(-c2ccnc(N=S(=O)(c3ccccc3)C(C)C)c2)s1 (single isomer, unassigned; (-)) [Example 36]: 43.3
CCc1nc(-c2ccc(F)cc2)c(-c2ccnc(N=S(C)(=O)c3cccc(C)c3)c2)s1 (centres unmarked) [Example 46]: 56.80

Data point: CCc1nc(-c2ccccc2)c(-c2ccnc(N=S(C)(=O)c3cccc(C)c3)c2)s1 (centres unmarked) [Example 24] ; In vivo LPS induced TNF α inhibition in Balb/c mice TNF α % inhibition (10 mg/kg) = 39.3

Reported In vivo LPS induced TNF α inhibition in Balb/c mice TNF α % inhibition (10 mg/kg) of CCc1nc(-c2ccc(F)cc2)c(-c2ccnc(N=S(C)(=O)c3ccc(F)cc3)c2)s1 (single isomer, unassigned; (-)) [Example 43] : 49.4

Item: CCc1nc(-c2ccc(F)cc2)c(-c2ccnc(N=S(C)(=O)c3cccc(F)c3)c2)s1 (centres unmarked) [Example 47] | In vivo LPS induced TNF α inhibition in Balb/c mice TNF α % inhibition (10 mg/kg): 48.60
